# ASSAY SYSTEM: L342A luciferase (Photinus pyralis, UniProt P08659, L342A)
# Construct: The full firefly (Photinus pyralis) luciferase gene was PCR amplified from pGL3 (Promega); GST (N, cleaved yes); made in house; host or cells: E. coli JM109
# EXPERIMENT NOTES: Bioluminescence emission scan
# Assay type: biochemical
VALUE TYPE: Maximum Emission Wavelength of Selected Substrate (nm)
The figure you give is taken to be in nm; do not add the unit.

INSERT INTO assay_data (compound, value) VALUES
  ('O=C(O)C1CSC(c2nc3cc4c(cc3s2)NCCC4)=N1 (stereo not drawn) [CycLuc7]', 611);

Using the record for O=C(O)C1CSC(c2nc3cc4c(cc3s2)NCCO4)=N1 (stereo not drawn) [CycLuc3] , state its measured Maximum Emission Wavelength of Selected Substrate.
599

----------
Items are presented alongside their recorded Apparent Vmax.
# ASSAY SYSTEM: L286M mutant luciferase (Photinus pyralis, UniProt P08659, L286M)
# Construct: The full firefly (Photinus pyralis) luciferase gene was PCR amplified from pGL3 (Promega); GST (N, cleaved yes); made in house; host or cells: E. coli JM109
# Sequence (P08659 whole entry L286M): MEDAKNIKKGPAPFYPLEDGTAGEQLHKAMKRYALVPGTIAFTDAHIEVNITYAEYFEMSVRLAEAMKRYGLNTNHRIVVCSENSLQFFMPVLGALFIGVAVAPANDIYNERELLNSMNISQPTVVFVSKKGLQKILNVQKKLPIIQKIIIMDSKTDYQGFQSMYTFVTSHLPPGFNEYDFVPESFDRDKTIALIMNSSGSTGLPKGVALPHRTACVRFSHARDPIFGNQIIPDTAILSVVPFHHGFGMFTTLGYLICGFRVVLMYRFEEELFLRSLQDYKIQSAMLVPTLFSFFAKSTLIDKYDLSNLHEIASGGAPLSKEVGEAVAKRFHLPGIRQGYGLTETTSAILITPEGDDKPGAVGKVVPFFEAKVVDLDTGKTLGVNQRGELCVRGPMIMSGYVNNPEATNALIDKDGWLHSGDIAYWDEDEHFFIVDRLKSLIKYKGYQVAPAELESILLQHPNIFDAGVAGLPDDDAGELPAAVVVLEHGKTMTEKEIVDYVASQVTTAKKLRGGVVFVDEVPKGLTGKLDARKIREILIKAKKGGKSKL
# EXPERIMENT NOTES: Titration assay with purified protein
# Format: biochemical

Here's what some known entries look like.
INSERT INTO assay_data (compound, value) VALUES
  ('CNc1ccc2nc(C3=NC(C(=O)O)CS3)sc2c1 (stereo not drawn) [6′-MeNHLH2, Monomethylaminoluciferin]', '7 ± 0.05 ×10^−5 cps'),
  ('CN(C)c1ccc2nc(C3=NC(C(=O)O)CS3)sc2c1 (stereo not drawn) [6′-Me2NLH2]', '1.3 ± 0.01 ×10^−5 cps');

Using the record for Nc1ccc2nc(C3=N[C@@H](C(=O)O)CS3)sc2c1 [6′-NH2LH2, 6′-aminoluciferin] , state its measured Apparent Vmax.
62 ± 0.7 ×10^−5 cps

Using the record for CN1CCc2cc3nc(C4=N[C@@H](C(=O)O)CS4)sc3cc21 [CycLuc2] , state its measured Apparent Vmax.
2.3 ± 0.02 ×10^−5 cps

Using the record for O=C(O)[C@H]1CSC(c2nc3cc4c(cc3s2)NCC4)=N1 [CycLuc1] , state its measured Apparent Vmax.
60 ± 0.7 ×10^−5 cps

Using the record for O=C(O)[C@H]1CSC(c2nc3ccc(O)cc3s2)=N1 [D-Luciferin, D-luciferin] , state its measured Apparent Vmax.
1060 ± 26 ×10^−5 cps

----------
# ASSAY SYSTEM: T251S mutant luciferase (Photinus pyralis, UniProt P08659, T251S)
# Construct: The full firefly (Photinus pyralis) luciferase gene was PCR amplified from pGL3 (Promega); GST (N, cleaved yes); made in house; host or cells: E. coli JM109
# Sequence (P08659 whole entry T251S): as the sequence (P08659 whole entry L286M) above, with T251S, M286L counted along it
# EXPERIMENT NOTES: Titration assay with purified protein
# Format: biochemical
VALUE TYPE: Apparent Vmax

INSERT INTO assay_data (molecule, value) VALUES
  ('O=C(O)[C@H]1CSC(c2nc3ccc(O)cc3s2)=N1', '1054 ± 19 ×10^−5 cps'),
  ('Nc1ccc2nc(C3=N[C@@H](C(=O)O)CS3)sc2c1', '51 ± 0.3 ×10^−5 cps'),
  ('O=C(O)[C@H]1CSC(c2nc3cc4c(cc3s2)NCC4)=N1', '90 ± 0.9 ×10^−5 cps');

Using the record for CN(C)c1ccc2nc(C3=NC(C(=O)O)CS3)sc2c1 (stereo not drawn) , state its measured Apparent Vmax.
1.6 ± 0.02 ×10^−5 cps

Using the record for CN1CCc2cc3nc(C4=N[C@@H](C(=O)O)CS4)sc3cc21 , state its measured Apparent Vmax.
4.8 ± 0.1 ×10^−5 cps

Using the record for CNc1ccc2nc(C3=NC(C(=O)O)CS3)sc2c1 (stereo not drawn) , state its measured Apparent Vmax.
8 ± 0.1 ×10^−5 cps
